biological target: Gal4 DNA binding domain fused to the LBD of LXRα in HEK293 cells (Homo sapiens (Human)); assay: LXR luciferase transcriptional reporter gene assay, agonist mode, LXRα; type: cell-based
Sequence (Q13133 209-447): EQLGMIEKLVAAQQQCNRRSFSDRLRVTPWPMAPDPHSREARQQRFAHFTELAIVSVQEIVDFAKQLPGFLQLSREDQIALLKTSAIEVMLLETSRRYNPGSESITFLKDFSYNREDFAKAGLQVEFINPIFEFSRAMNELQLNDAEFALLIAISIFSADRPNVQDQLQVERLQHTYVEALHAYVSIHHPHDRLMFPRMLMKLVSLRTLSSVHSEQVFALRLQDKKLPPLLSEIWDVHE
EXPERIMENTAL_ENDPOINT: Cell LXRα efficacy

{"columns": ["COMPOUND", "EXPERIMENTAL_RESULT"],
 "data": [
  ["CCOC(=O)c1cnc(N2CCN(c3ccc(F)c(S(C)(=O)=O)c3)C[C@H]2C2CC2)nc1C(F)(F)F", "1415 (37) %"]
]}

I would be grateful if you could provide Cell LXRα efficacy for each of the following entries.
1. CC(C)[C@@H]1CN(c2ccc(F)c(S(C)(=O)=O)c2)CCN1c1ncc([C@H](C)O)c(C(F)(F)F)n1
2. CC(C)[C@@H]1CN(c2ccc(F)c(S(C)(=O)=O)c2)CCN1c1cncc(C(F)(F)F)c1
3. CC(C)[C@@H]1CN(c2ccc(F)c(S(C)(=O)=O)c2)CCN1c1nccc(C2CC2)n1
4. CS(=O)(=O)c1cc(N2CCN(C[C@H]3CC[C@H](C(F)(F)F)CC3)[C@@H](c3ccccc3)C2)ccc1C#N (single isomer, unassigned)
5. CC(C)[C@@H]1CN(c2ccc(F)c(S(C)(=O)=O)c2)CCN1c1ncc(C(N)=O)c(C(F)(F)F)n1
6. CS(=O)(=O)c1cc(N2CCN(C[C@H]3CC[C@@H](C(F)(F)F)CC3)[C@H](c3ccccc3Cl)C2)ccc1C(N)=O (single isomer, unassigned)

## Output
1. 746 (41) %
2. 678 (90) %
3. 586 (42) %
4. 3065 (19) %
5. 1789 (17) %
6. 15695 (21) %

###

biological target: LXR α LBD protein (Homo sapiens (Human)); test: LXR α radioligand binding assay (SPA, competition with [3H]TO901317); settings: read-out: LXRα Binding Ki
EXPERIMENTAL_ENDPOINT: log10 Ki (log10 of the value in nM)
Plainly stated, the numbers are log10 of Ki given in nM.

For orientation, consider the following solved cases.
{"columns": ["MOLECULE", "log10 Ki"],
 "data": [
  ["CC(C)[C@@H]1CN(c2ccc(F)c(S(C)(=O)=O)c2)CCN1c1ncc([C@H](C)O)c(C(F)(F)F)n1", 2.37],
  ["CCOC(=O)c1cnc(N2CCN(c3ccc(COC(C)=O)c(S(C)(=O)=O)c3)C[C@H]2C(C)C)nc1C(F)(F)F", 1.98],
  ["CC(O)c1nc(N2CCN(c3ccc(F)c(S(C)(=O)=O)c3)C[C@H]2C(C)C)ncc1C(F)(F)F (stereo partly drawn)", 1.83],
  ["CC(C)(O)c1cnc(N2CCN(c3ccc(F)c(S(C)(=O)=O)c3)CC2C(C)(C)C)nc1C(F)(F)F (stereo not drawn)", 1.77],
  ["CC(C)C1CN(c2ccc(C#N)c(S(C)(=O)=O)c2)CCN1CC1CCC(C(F)(F)F)CC1 (stereo not drawn)", 2.55]
]}

I would be grateful if you could provide log10 Ki for each of the following entries.
1. CS(=O)(=O)c1cccc(N2CCN(C[C@H]3CC[C@]4(CC3)CC4(F)F)[C@@H](c3ccccc3)C2)c1 (single isomer, unassigned)
2. CC(C)[C@@H]1CN(c2ccc(F)c(S(C)(=O)=O)c2)CCN1c1nc2cnccc2s1
3. CC(C)[C@H]1CN(c2cccc(S(C)(=O)=O)c2)CCN1C[C@H]1CC[C@H](C(F)(F)F)CC1 (single isomer, unassigned)
4. CC(F)(F)[C@H]1CN(c2cccc(S(C)(=O)=O)c2)CCN1c1nccc(C(F)(F)F)n1
5. CC(C)[C@H]1CN(c2cccc(S(C)(=O)=O)c2)CCN1CC1CCC(C(F)(F)F)N(C)C1 (stereo partly drawn)

## Output
1. 1.70
2. 3.47
3. 2.39
4. 3.68
5. 2.16

I would be grateful if you could provide log10 Ki for each of the following entries.
1. CC(C)[C@@H]1CN(c2ccc(F)c(S(C)(=O)=O)c2)CCN1c1nc2ccc(F)cc2s1
2. CS(=O)(=O)c1cccc(N2CCN(C[C@H]3CC[C@@H](C(F)(F)F)OC3)[C@@H](c3ccc(F)cc3)C2)c1 (single isomer, unassigned)

## Output
[2.08, 3.08]

###

target: UniProtKB P55055; test: biochemical; format: binding; conditions: Biological Test Example 1; read-out: LXRβ Binding Ki
EXPERIMENTAL_ENDPOINT: log10 Ki (log10 of the value in nM)
Plainly stated, the numbers are log10 of Ki given in nM.

For orientation, consider the following solved cases.
{"columns": ["MOLECULE", "EXPERIMENTAL_RESULT"],
 "data": [
  ["CS(=O)(=O)c1cccc(N2CCN(C[C@@H]3C[C@H]4CC[C@@H](C3)N4CC(F)(F)F)[C@H](c3ccccc3)C2)c1", 2.97],
  ["CS(=O)(=O)c1cc(N2CCN(C[C@H]3CC[C@H](C(F)(F)F)CC3)[C@@H](c3ccccc3)C2)ccc1CO (single isomer, unassigned)", 1.32],
  ["CC(=O)NCc1cnc(N2CCN(c3ccc(F)c(S(C)(=O)=O)c3)C[C@H]2C(C)C)nc1C(F)(F)F", 1.91],
  ["CO[C@]1(C(F)(F)F)CC[C@@H](CN2CCN(c3ccc(CO)c(S(C)(=O)=O)c3)C[C@@H]2C(C)C)CC1 (single isomer, unassigned)", 0.30],
  ["CC(C)[C@H]1CC[C@H](CN2CCN(c3ccc(CO)c(S(C)(=O)=O)c3)C[C@H]2c2ccccc2)CC1 (single isomer, unassigned)", 3.39]
]}

The record that follows has no log10 Ki shown yet.
## Input Answer with reported log10 Ki of CC(C)[C@H]1CN(c2cccc(S(C)(=O)=O)c2)CCN1CC1CCC(C)(C)OC1 (stereo partly drawn)
## Output 2.68

###

biological target: Gal4 DNA binding domain fused to the LBD of LXRα in HEK293 cells (Homo sapiens (Human)); test: LXR luciferase transcriptional reporter gene assay, agonist mode, LXRα; assay type: cell-based; settings: read-out: Cell LXRα EC50
EXPERIMENTAL_ENDPOINT: pEC50
Give bare numbers, as −log10 of the molar value.

{"columns": ["COMPOUND", "EXPERIMENTAL_ENDPOINT", "EXPERIMENTAL_RESULT"],
 "data": [
  ["NS(=O)(=O)c1cccc(N2CCN(C[C@H]3CC[C@@H](C(F)(F)F)CC3)[C@@H](c3ccccc3)C2)c1 (single isomer, unassigned)", "pEC50", 6.45],
  ["CC(C)[C@@H]1CN(c2ccc(F)c(S(N)(=O)=O)c2)CCN1c1ncc(CO)c(C(F)(F)F)n1", "pEC50", 5.87],
  ["Cc1nc(N2CCN(c3ccc(F)c(S(C)(=O)=O)c3)C[C@H]2C(C)C)ncc1C(F)(F)F", "pEC50", 6.58],
  ["NS(=O)(=O)c1cccc(N2CCN(C[C@H]3CC[C@H](C(F)(F)F)CC3)[C@@H](c3ccccc3)C2)c1 (single isomer, unassigned)", "pEC50", 5.55]
]}

## Input Answer with reported pEC50 of CC(C)[C@@H]1CN(c2cccc(S(C)(=O)=O)c2)CCN1C(=O)OC(C)(C)C
## Output 5.56

###

target: Gal4 DNA binding domain fused to the LBD of LXRβ in HEK293 cells (Homo sapiens (Human), UniProt P55055); assay: cell-based; conditions: agonist mode
Sequence (P55055 222-460 limits assumed): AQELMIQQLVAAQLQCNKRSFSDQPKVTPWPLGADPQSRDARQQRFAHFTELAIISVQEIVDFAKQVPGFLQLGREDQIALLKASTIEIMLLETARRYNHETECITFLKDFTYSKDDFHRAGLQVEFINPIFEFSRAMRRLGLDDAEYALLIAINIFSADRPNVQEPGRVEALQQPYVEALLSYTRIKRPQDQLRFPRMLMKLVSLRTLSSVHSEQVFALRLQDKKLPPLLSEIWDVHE
EXPERIMENTAL_ENDPOINT: Cell LXRβ efficacy

{"columns": ["COMPOUND", "EXPERIMENTAL_ENDPOINT", "EXPERIMENTAL_RESULT"],
 "data": [
  ["CC(C)[C@@H]1CN(c2ccc(C#N)c(S(C)(=O)=O)c2)CCN1c1ncc([C@@H](C)O)c(C(F)(F)F)n1 (single isomer, unassigned)", "Cell LXRβ efficacy", "652 (50) %"]
]}

I would be grateful if you could provide Cell LXRβ efficacy for each of the following entries.
1. CO[C@@H](C)[C@@H]1CN(c2ccc(CO)c(S(C)(=O)=O)c2)CCN1c1ncc(CO)c(C(F)(F)F)n1 (single isomer, unassigned)
2. COC(=O)c1cc(CN2CCN(c3cccc(S(C)(=O)=O)c3)CC2c2ccccc2)ccc1C(F)(F)F (stereo not drawn)

## Output
1. 347 (24) %
2. 4759 (14) %

###

I'd appreciate it if you could supply Cell LXRβ efficacy values for the items below.
molecular target: Gal4 DNA binding domain fused to the LBD of LXRβ in HEK293 cells (Homo sapiens (Human)); test: cell-based; conditions: agonist mode

For orientation, consider the following solved cases.
{"columns": ["COMPOUND", "Cell LXRβ efficacy"],
 "data": [
  ["CS(=O)(=O)c1cccc(N2CCN(C[C@H]3CC[C@@H](C(F)(F)F)CC3)[C@H](c3ccccc3)C2)c1 (single isomer, unassigned)", "28%"],
  ["C[C@]1(c2ccccc2)CN(c2cccc(S(C)(=O)=O)c2)CCN1Cc1ccc(C(F)(F)F)cc1 (single isomer, unassigned)", "541 (12) %"]
]}

The record that follows has no Cell LXRβ efficacy shown yet.
## Input Answer with reported Cell LXRβ efficacy of CC(O)c1cnc(N2CCN(c3ccc(F)c(S(C)(=O)=O)c3)C[C@H]2C(C)C)nc1C(F)(F)F (mixture of isomers)
## Output 154 (37) %
